As shown below, each of these compounds has a reported residual activity value.
# Target entity: Insulin receptor-related protein (Homo sapiens) (UniProt P14616)
# Sequence (P14616 27-742 limits assumed): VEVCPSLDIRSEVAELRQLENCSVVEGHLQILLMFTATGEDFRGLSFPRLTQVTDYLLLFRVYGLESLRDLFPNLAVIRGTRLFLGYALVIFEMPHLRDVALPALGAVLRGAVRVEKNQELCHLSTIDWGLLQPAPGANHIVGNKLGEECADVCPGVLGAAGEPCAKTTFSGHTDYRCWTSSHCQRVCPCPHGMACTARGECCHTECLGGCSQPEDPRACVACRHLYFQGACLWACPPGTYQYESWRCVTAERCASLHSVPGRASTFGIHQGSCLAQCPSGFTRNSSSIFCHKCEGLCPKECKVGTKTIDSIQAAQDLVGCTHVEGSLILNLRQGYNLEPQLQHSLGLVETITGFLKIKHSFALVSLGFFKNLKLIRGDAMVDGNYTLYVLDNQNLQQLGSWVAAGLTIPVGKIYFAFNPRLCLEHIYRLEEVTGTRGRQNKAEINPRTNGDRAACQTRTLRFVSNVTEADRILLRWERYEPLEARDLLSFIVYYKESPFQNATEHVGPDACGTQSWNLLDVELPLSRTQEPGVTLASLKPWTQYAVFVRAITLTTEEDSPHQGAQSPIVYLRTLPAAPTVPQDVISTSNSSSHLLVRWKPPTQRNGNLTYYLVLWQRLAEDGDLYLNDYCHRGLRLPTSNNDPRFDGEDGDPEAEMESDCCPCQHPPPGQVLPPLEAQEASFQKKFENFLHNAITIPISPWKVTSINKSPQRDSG
# Sequence (P14616 747-1297 limits assumed): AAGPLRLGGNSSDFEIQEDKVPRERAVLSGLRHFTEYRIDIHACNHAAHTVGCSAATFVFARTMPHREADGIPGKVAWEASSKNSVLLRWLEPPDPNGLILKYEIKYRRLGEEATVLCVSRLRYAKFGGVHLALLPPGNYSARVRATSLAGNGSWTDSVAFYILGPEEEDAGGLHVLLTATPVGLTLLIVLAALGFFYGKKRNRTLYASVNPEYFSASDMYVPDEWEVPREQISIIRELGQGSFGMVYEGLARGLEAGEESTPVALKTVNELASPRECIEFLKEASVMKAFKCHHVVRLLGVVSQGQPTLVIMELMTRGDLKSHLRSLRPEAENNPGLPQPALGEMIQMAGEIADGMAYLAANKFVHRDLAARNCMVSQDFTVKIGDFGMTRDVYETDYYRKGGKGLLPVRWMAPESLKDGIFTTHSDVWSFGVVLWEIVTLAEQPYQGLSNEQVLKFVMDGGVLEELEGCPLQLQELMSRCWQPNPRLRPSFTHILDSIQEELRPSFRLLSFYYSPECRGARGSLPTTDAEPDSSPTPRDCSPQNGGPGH
# Test conditions: at 10 µM
Please respond with the number in % and leave the unit unwritten.

# annotated cases, reported residual activity shown
1) COc1cc2ncc(-c3ccccc3)nc2cc1OC    80
2) O=C1c2ccccc2-[n+]2ccc3c([nH]c4ccccc43)c21    92
3) COc1ccc(CNc2nc(N(CCO)CCO)nc3c2ncn3C(C)C)cc1    87
4) c1ccc2c(-c3ccncc3)c[nH]c2c1    83
5) Oc1n[nH]c2nnc(-c3c(-c4ccccc4)nn4ccccc34)cc12    2
6) N#CCCc1ccc2c(c1)-c1[nH]c3ccc([N+](=O)[O-])cc3c1CC(=O)N2    81
7) Cc1ccc(NC2=CC(=O)c3sc(C)nc3C2=O)cc1    108
8) COc1ccc(OC)c2c(=S)c3ccccc3[nH]c12    103

Req: Query: residual activity; subject: "CO[C@H]1[C@@H](OC)C[C@H](C)[C@@H](OC)C2=CC(=O)C=C(NC(=O)/C(C)=C/C=C/[C@H](OC)[C@@H](OC(N)=O)/C(C)=C/[C@@H]1C)C2=O"
Resp: 79

Req: Can you share its residual activity? I mean this compound: "Cn1nc2c3c(cccc31)C(=O)c1ccccc1-2"
Resp: 89

Req: Reported residual activity, compound "Cc1nc2cc3nc(-c4cccs4)cnc3cc2n1C" : ____
Resp: 100

Req: Endpoint output: residual activity of "Ic1cccc(CSc2nnc(-c3ccncc3)o2)c1" . Value?
Resp: 101

Req: Would you kindly share the measured residual activity for "c1ccc(-c2n[nH]cc2-c2ccnc3ccccc23)nc1" ?
Resp: 79

Req: Look up residual activity for this compound: "CCC(=O)Nc1ccc2ncnc(Nc3cccc(Br)c3)c2c1"
Resp: 79

Req: What value of residual activity has been reported for the following compound? "c1ccc(-c2n[nH]c3c2oc2ccccc23)cc1"
Resp: 73

Req: Any idea what residual activity was measured for "CCOc1cc2ncnc(Nc3cccc(Br)c3)c2cc1OCC" ?
Resp: 85

----------
Some molecules, each annotated with its measured residual activity.
# Target entity: Serine/threonine-protein kinase pim-1 (Homo sapiens)
# Test conditions: at 10 µM
Use % as the unit, but write only the number.

Guide cases for residual activity, answers given:
1) C[C@@H](N)[C@H]1CC[C@H](C(=O)Nc2ccncc2)CC1    115
2) CC(C)n1cnc2/c(=N/c3cccc(Cl)c3)nc(NCCO)[nH]c21    66
3) Cn1nc2c3c(cccc31)C(=O)c1ccccc1-2    45
4) O=C(O)c1ccc2c3c1cccc3c(=O)n1c3ccccc3nc21    23
5) Nc1nc(Nc2ccc(S(N)(=O)=O)cc2)nn1C(=S)Nc1c(F)cccc1F    77
6) Cn1cnc2cc3c(Nc4cccc(Br)c4)ncnc3cc21    63
7) Cc1ccc(NC2=CC(=O)c3sc(C)nc3C2=O)cc1    85
8) CN(C)c1ccc(/C=C2\C(=O)Nc3ccccc32)cc1    93
9) COc1cc2ncnc(Nc3ccc(Oc4ccccc4)cc3)c2cc1OC    132
10) CC(=O)O/N=C1\C(=C2\C(=O)Nc3cc(Br)ccc32)Nc2ccccc21    87

Now examine the next entry.
Req: I have this molecule here, "COc1cc2ncnc(Nc3ccc(O)c(Br)c3)c2cc1OC" , and I need its recorded residual activity.
Resp: 29
